Measured values drawn from PubChem BioAssay (NCATS) for this set.

- Tested on: CP325
- Assay Overview: qHTS profiling for inhibitors of Plasmodium falciparum proliferation (AID 504749); further: nearly all actives have a fitted effect of over 60% in size
- Measurement Parameters: P. falciparum in erythrocytes, SYBR Green DNA, 72 h; series mostly up to 28.7 µM
Inconclusive results are not listed. Calls of active or inactive are those of the source. The call rests on the fitted dose curve; in most records, active means well fitted inhibition curve with a large enough effect; inconclusive means small, poorly fitted or top-dose-only effect; inactive means flat fitted curve, though single readings scatter.
Returns: one label drawn from active, inactive

Some solved entries appear below for comparison.
OC[C@@H]1O[C@](CO)(O[C@H]2O[C@H](CO)[C@@H](O)[C@H](O)[C@H]2O)[C@H](O)[C@H]1O : inactive
Cc1cncc(C(=O)O)[n+]1[O-] : inactive
CCCCCOC(=O)Nc1nc(=O)n(C2O[C@H](C)[C@@H](O)[C@@H]2O)cc1F (stereo partly drawn) : inactive
CC(=O)OCC(=O)[C@@]1(O)CCC2C3CCC4=CC(=O)C=CC4(C)C3C(O)C[C@]21C (stereo partly drawn) : inactive

Exercise: Can you look up the reported call for Cc1cc(O)c2c(c1)OC1(C)CCC3C(C)(C)CCCC34COC2C14 (stereo not drawn) for me?
Solution: inactive

Exercise: Could you kindly confirm the outcome this assay logged for CO[C@H]1C[C@@H]2CC[C@@H](C)[C@@](O)(O2)C(=O)C(=O)N2CCCC[C@H]2C(=O)O[C@H]([C@H](C)C[C@@H]2CC[C@@H](O)[C@H](OC)C2)CC(=O)[C@H](C)/C=C(\C)[C@@H](O)[C@@H](OC)C(=O)[C@H](C)C[C@H](C)/C=C/C=C/C=C/1C ?
Solution: active

Exercise: // param item: Nc1nc(/C(=C/CC(=O)O)C(=O)NC2C(=O)N3C(C(=O)O)=CCSC23)cs1 (stereo not drawn) ; yields the recorded call
Solution: inactive

Exercise: Could you check what this test reported for CC[C@@H](C)C(N)C(=O)O (stereo partly drawn) ?
Solution: inactive

----------
- Assay Target: Cytochrome P450 2C9 (Homo sapiens) (UniProt P11712)
- Sequence (P11712 whole entry, looked up): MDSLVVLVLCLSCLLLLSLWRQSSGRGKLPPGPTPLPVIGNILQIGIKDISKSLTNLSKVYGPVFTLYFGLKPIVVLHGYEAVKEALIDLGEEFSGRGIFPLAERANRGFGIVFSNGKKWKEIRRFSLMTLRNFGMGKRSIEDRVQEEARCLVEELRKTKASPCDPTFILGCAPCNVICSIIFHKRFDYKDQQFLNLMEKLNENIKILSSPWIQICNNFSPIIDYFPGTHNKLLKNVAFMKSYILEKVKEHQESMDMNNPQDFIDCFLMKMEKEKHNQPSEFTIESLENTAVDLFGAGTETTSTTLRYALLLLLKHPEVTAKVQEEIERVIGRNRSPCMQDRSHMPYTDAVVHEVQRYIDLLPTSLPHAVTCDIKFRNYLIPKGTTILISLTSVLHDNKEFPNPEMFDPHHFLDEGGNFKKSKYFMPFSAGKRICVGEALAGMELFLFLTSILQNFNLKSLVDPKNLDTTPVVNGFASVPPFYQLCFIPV
- Assay Overview: qHTS Assay for Inhibitors and Substrates of Cytochrome P450 2C9 (AID 883); further: nearly all actives have a fitted effect of over 60% in size; further: potency means the concentration at half of the fitted maximal effect
- Measurement Parameters: recombinant CYP2C9, luciferin-H luminescence, 60 min; series mostly up to 57.1 µM
Records with an inconclusive call do not appear. The source made the active and inactive calls. Calls come from the whole dose curve; as a rule, active = well fitted inhibition curve with a large enough effect; inconclusive = small, poorly fitted or top-dose-only effect; inactive = no such curve, though single readings can be large or run the other way.
Reported Endpoint: Potency

Some entries whose results are on file:
C[C@@H](C(=O)Cc1ccc2ccccc2c1)[C@@H]1C[C@@]1(C)[C@@H](NP(=O)(c1ccccc1)c1ccccc1)c1ccccc1 : 3.16 µM (active)
COC(=O)[C@@]1(Cc2ccc(F)cc2)[C@H]2c3cc(C(=O)N4CCCC4)n(CCCNc4ncc(C(F)(F)F)cc4Cl)c3C[C@H]2CN1C(=O)c1ccccc1 : 3.16 µM (active)
CCCCCCCCCCCCCCCCCC(=O)NC[C@@H](COP(=O)([O-])OCC[N+](C)(C)C)OCC : inactive
C[C@@H](C(=O)Nc1ccc2ccccc2c1)[C@H]1C[C@]1(C)[C@H](NC(=O)c1cnccn1)c1ccccc1 : 5.01 µM (active)

Dear colleague, could you send me Potency for each of the items below? Thanks.
1. CC(C)c1cccc2c([Si](C)(C)C)c3c(nc12)-c1cccc(=O)n1C3
2. CC(C)C[C@@H](CC(=O)N[C@@H](CCC(=O)O)CC(=O)O)NC(=O)[C@@H]1CCCC[C@H]1NC(=O)C[C@@H](NC(=O)C[C@H](Cc1c[nH]c2ccccc12)NC(=O)[C@@H]1CCCC[C@H]1N)C(C)C
3. Cc1cc(C(=O)N[C@H](c2ccccc2)[C@@]2(C)C[C@@H]2[C@@H](C)C(=O)Nc2ccc3ccccc3c2)n(C)n1

Solution:
["2 µM (active)", "inactive", "7.94 µM (active)"]

----------
- Test system: SC27B
- Assay Overview: qHTS profiling for inhibitors of Plasmodium falciparum proliferation (AID 504749); further: nearly all actives have a fitted effect of over 60% in size
- Measurement Parameters: P. falciparum in erythrocytes, SYBR Green DNA, 72 h; series mostly up to 28.7 µM
Inconclusive results are not listed. The source made the active and inactive calls. The call rests on the fitted dose curve; in most records, active means well fitted inhibition curve with a large enough effect; inconclusive means small, poorly fitted or top-dose-only effect; inactive means flat fitted curve, though single readings scatter.
Entry note: the call must match one of y (active), n (inactive)

C/C=C1/NN(CCCN2CCN(c3cccc(Cl)c3)CC2)C(=O)N1CCOc1ccccc1 : n
CCCCN1CC(O)C(O)C(O)C1CO (stereo not drawn) : n
COc1ccc2cc1Oc1cc3c(cc1OC)CC[N+](C)(C)C3Cc1ccc(cc1)Oc1c(OC)c(OC)cc3c1C(C2)[N+](C)(C)CC3 (stereo not drawn) : n
CC1OC(OCC2OC(Oc3c(-c4ccc(OCCO)c(OCCO)c4)oc4cc(OCCO)cc(O)c4c3=O)C(O)C(O)C2O)[C@@H](O)C(O)C1O (stereo partly drawn) : n
CC(=O)OCC(=O)[C@@]1(O)CCC2C3CCC4=CC(=O)C=CC4(C)C3C(O)C[C@]21C (stereo partly drawn) : n
OCCN1CC(O)C(O)C(O)C1CO (stereo not drawn) : n
NC(=O)c1ncn(C2OC(CO)C(O)C2O)c1N (stereo not drawn) : n
COC1CC2CCC(C)[C@](O)(O2)C(=O)C(=O)N2CCCCC2C(=O)OC(C(C)CC2CCC(O)C(OC)C2)CC(=O)C(C)/C=C(/C)C(O)C(OC)C(=O)C(C)CC(C)C=CC=C/C=C\1C (stereo partly drawn) : y
CCC(=O)O[C@]1(C(=O)CCl)[C@@H](C)CC2C3C[C@H](F)C4=CC(=O)C=CC4(C)[C@@]3(F)C(O)CC21C (stereo partly drawn) : y
O=c1ccn(C2OC(COP(=O)(O)OC3C(CO)OC(n4ccc(=O)[nH]c4=O)C3O)C(O)C2O)c(=O)[nH]1 (stereo not drawn) : n

Exercise: Record request — test call for Cc1cc2nc3c(=O)[nH]c(=O)nc-3n(CC(O)C(O)C(O)COP(=O)(O)O)c2cc1C (stereo not drawn)
Solution: n

Exercise: So what was the verdict on CN1[C@H]2CC(OC(=O)[C@H](CO)c3ccccc3)C[C@H]1[C@H]1O[C@H]12 (stereo partly drawn) in this test?
Solution: n

Exercise: I would be grateful if you could indicate the recorded call for Oc1cc2cc(CCN3CCN(c4nsc5ccccc45)CC3)c(Cl)cc2[nH]1 .
Solution: n

----------
- Assay Overview: Stat Signaling Pathway (AID 446);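 further: ME-180 cervical cancer cells given 40 pM IL-6 alongside compound; SIE-controlled beta-lactamase reporter measured as 460/530 nm FRET emission ratio; on the % scale 0 is the no-effect control and ±100 the full control effect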
- Measurement Parameters: ME-180 (cervical carcinoma) SIE beta-lactamase reporter, IL-6 stimulated, 5 h; at 17.2 µM (top of the series) unless noted
Results filed as inconclusive are left out.
Reported Endpoint: activity, negative = inhibition (%)
Answers are plain numbers, in %.

Cn1c(=O)[nH]c(=O)c2c1nc(N1CCN(c3cccc(Cl)c3)CC1)n2CCCc1ccccc1 : 6.95
CC(C)OC(=O)c1sc2nc3c(cc2c1N)C(=O)CCC3 : -1.01
Cc1cccc(N(Cc2cc3ccccc3[nH]c2=O)C(=O)c2ccco2)c1C : -17
CC(C)CN1C(=O)NC(NC(=O)c2cccnc2)(C(F)(F)F)C1=O (stereo not given) : -1.02

Exercise: Please report activity, negative = inhibition for the following compound: Cc1ccc(C2/C(=C(\O)c3ccc4c(c3)OCCO4)C(=O)C(=O)N2CCCN(C)C)o1 (stereo not given)
Solution: -1.3

----------
- Test system: FAB9
- Assay Overview: qHTS profiling for inhibitors of Plasmodium falciparum proliferation (AID 504749); further: nearly all actives have a fitted effect of over 60% in size
- Measurement Parameters: P. falciparum in erythrocytes, SYBR Green DNA, 72 h; series mostly up to 28.7 µM
Inconclusive results are not listed. The source made the active and inactive calls. The call rests on the fitted dose curve; in most records, active means well fitted inhibition curve with a large enough effect; inconclusive means small, poorly fitted or top-dose-only effect; inactive means flat fitted curve, though single readings scatter.
Outcome (select one): active, inactive

Exercise: # fetch the recorded call for CC(=O)NC1[C@H]([C@H](O)[C@H](O)CO)OC(C(=O)O)=C[C@H]1N=C(N)N (some centres not stated) here
Solution: inactive

Exercise: Tell me the recorded outcome of this test for CC(=O)O[C@]1(C(C)=O)CCC2C3CCC4=CC(=O)CCC4(C)C3(F)C(O)CC21C (some centres not stated) .
Solution: inactive

----------
- Tested on: PC15
- Assay Overview: qHTS profiling for inhibitors of Plasmodium falciparum proliferation (AID 504749); further: nearly all actives have a fitted effect of over 60% in size
- Measurement Parameters: P. falciparum in erythrocytes, SYBR Green DNA, 72 h; series mostly up to 28.7 µM
- Protocol: NIH National Institute of Allergy and Infectious Diseases [NIAID] NIH Chemical Genomics Center [NCGC] […] Because mature erythrocytes lack DNA, only Plasmodium-derived DNA is detected. NCGC Assay Protocol Summary: The SYBR Green viability assay was adapted from a method described previously (Plouffe et al., 2008). […] The following morning, fluorescence intensity at 485(14) nm excitation and 535(25) nm emission wavelengths was measured on an EnVision (Perkin Elmer) plate reader. […]
Results filed as inconclusive are left out. Calls of active or inactive are those of the source. Calls come from the whole dose curve; as a rule, active = well fitted inhibition curve with a large enough effect; inconclusive = small, poorly fitted or top-dose-only effect; inactive = flat fitted curve, though single readings scatter.
Give one outcome, nothing more. List: 1 (active), -1 (inactive)

Solved cases (3 shown):
CC1CN(c2c(F)c(N)c3c(=O)c(C(=O)O)cn(C4CC4)c3c2F)CC(C)N1 (configuration not stated) : -1
CN(C)CC/C=C1\c2ccccc2COc2ccc(CC(=O)O)cc21 : -1
NC(C(=O)O)C(O)c1ccc(O)c(O)c1 (configuration not stated) : -1

From here, focus on the item given below.
Exercise: Just curious, what result did CC[C@]1([C@H]2O[C@@H]([C@@H]3O[C@](O)(CO)[C@@H](C)C[C@H]3C)C[C@H]2C)CC[C@@H]([C@]2(C)CC[C@@]3(C[C@@H](O)[C@@H](C)[C@@H]([C@H](C)[C@H](OC)[C@H](C)C(=O)O)O3)O2)O1 get here?
Solution: 1
